test: Solubility in 20% cyclodextrin by HPLC; format: physicochemical; details: aqueous with cosolvent or surfactant or cyclodextrin, thermodynamic from solid, 20% 2-Hydroxypropyl-β-cyclodextrin (HPBCD), room temperature
Where a name gives a salt, the structure may show the parent alone.
RESULT TYPE: solubility at 24 h (mg/mL)

> print(dat)
                                   molecule         result.type  val
1  C[C@@]12CCCCC[C@@H](Cc3ccc(O)cc31)[C@@H]2N [Dezocine, hydrobromide]  solubility at 24 h   18

====

target: serotonin transporter (SERT) (Homo sapiens)
Sequence (P31645 whole entry): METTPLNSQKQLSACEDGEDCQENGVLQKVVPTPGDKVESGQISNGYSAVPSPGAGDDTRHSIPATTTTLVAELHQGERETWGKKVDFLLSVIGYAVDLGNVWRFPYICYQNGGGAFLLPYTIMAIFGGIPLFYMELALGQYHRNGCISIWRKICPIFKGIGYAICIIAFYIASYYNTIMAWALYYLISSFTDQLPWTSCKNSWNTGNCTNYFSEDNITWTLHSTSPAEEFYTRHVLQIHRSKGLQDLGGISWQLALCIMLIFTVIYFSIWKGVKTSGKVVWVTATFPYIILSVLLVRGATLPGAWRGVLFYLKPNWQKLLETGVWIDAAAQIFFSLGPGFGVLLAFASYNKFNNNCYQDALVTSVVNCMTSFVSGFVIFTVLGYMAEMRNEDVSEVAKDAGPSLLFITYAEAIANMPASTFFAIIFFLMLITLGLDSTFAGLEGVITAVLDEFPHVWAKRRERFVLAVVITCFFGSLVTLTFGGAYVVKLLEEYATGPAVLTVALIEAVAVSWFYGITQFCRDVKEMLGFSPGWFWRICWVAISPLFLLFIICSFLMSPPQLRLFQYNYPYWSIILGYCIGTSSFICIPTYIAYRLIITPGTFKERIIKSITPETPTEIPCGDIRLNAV
pKi: −log10 of the molar value. Structures can show the parent of a compound that is named as a salt.
RESULT TYPE: pKi

> print(dat)
                                   molecule  result.type   val
1  C[C@@]12CCCCC[C@@H](Cc3ccc(O)cc31)[C@@H]2N [Dezocine, hydrobromide]          pKi  6.95

Recorded values, source patent US9956187B2.
